Molecular target: CCXCKR2 receptor (Homo sapiens)
Construct: expressed in transfected cells; host or cells: MDA-MB-435S transfected with pcDNA3.1(+)-hRDC1 and/or MCF-7 (endogenous receptor)
Test: Displacement of 125I-labeled SDF-1 from the CCXCKR2 receptor on MCF-7 and/or CCXCKR2-transfected MDA-MB-435S cells (radioligand binding, filtration)
Conditions: 125I SDF-1, 3 hr at 4° C., MCF-7 and/or MDA-MB-435S cells; read-out: Activity (concentration displacing at least 50% of the SDF-1 from the CCXCKR2 receptor)
Listing: IC50 of selected compounds

1. Cc1ccc(C(=O)c2cn(Cc3ccccn3)c3ccccc3c2=O)cc1C    < 100 nM

QUERY: Give measured IC50 for Cc1ccc(C(=O)c2cn(Cc3cccc(C#N)n3)c3ccccc3c2=O)nc1C (CCXCKR2 receptor (Homo sapiens)).
RESULT: < 100 nM

QUERY: Give measured IC50 for Cc1ccc(C(=O)c2cn(Cc3cccc(CCl)n3)c3ccccc3c2=O)cc1C (CCXCKR2 receptor (Homo sapiens)).
RESULT: < 100 nM

====

Listing: pIC50 of selected compounds
Biological target: CCXCKR2 receptor (Homo sapiens, UniProt P25106)
Construct: expressed in transfected cells; host or cells: MDA-MB-435S transfected with pcDNA3.1(+)-hRDC1 and/or MCF-7 (endogenous receptor)
Sequence (P25106 whole entry): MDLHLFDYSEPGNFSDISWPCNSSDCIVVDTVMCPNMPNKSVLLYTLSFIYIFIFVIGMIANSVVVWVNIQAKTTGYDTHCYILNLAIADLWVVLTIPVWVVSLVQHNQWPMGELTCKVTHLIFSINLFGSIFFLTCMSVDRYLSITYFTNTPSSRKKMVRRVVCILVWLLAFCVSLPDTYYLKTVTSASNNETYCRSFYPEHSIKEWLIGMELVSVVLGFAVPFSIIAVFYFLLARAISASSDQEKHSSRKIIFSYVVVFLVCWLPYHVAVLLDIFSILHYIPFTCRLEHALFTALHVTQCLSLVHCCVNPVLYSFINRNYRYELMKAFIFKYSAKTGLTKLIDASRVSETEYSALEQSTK
Test: Displacement of 125I-labeled SDF-1 from the CCXCKR2 receptor on MCF-7 and/or CCXCKR2-transfected MDA-MB-435S cells (radioligand binding, filtration)
Details: 125I SDF-1, 3 hr at 4° C., MCF-7 and/or MDA-MB-435S cells; read-out: Activity (concentration displacing at least 50% of the SDF-1 from the CCXCKR2 receptor)
pIC50: −log10 of the molar value.

1) COc1ncc(C(=O)c2cn(Cc3cccc(Cl)c3)c3ccccc3c2=O)cc1C    > 7.00

QUERY: Give a short answer stating reported pIC50 for O=C(c1ccc2c(c1)OCCO2)c1cn(Cc2cccc(Cl)c2)c2ccccc2c1=O .
RESULT: > 7.00

QUERY: Give a short answer stating reported pIC50 for COc1ccc(C(=O)c2cn(Cc3cccc(Br)n3)c3ncccc3c2=O)cc1C .
RESULT: > 7.00

QUERY: Give a short answer stating reported pIC50 for Cc1ccc(C(=O)c2cn(Cc3cccc(N4CCCCC4)n3)c3ccccc3c2=O)cc1C .
RESULT: > 7.00

QUERY: Give a short answer stating reported pIC50 for Cc1ccc(C(=O)c2cn(Cc3cccc(NS(C)(=O)=O)n3)c3ccccc3c2=O)cc1C .
RESULT: 6.30 to 7.00

QUERY: Give a short answer stating reported pIC50 for Cc1cc(C(=O)c2cn(Cc3cccc(Br)n3)c3ccc(F)cc3c2=O)cnc1C .
RESULT: > 7.00

====

Target: CCXCKR2 receptor (Homo sapiens)
Construct: expressed in transfected cells; host or cells: MDA-MB-435S transfected with pcDNA3.1(+)-hRDC1 and/or MCF-7 (endogenous receptor)
Assay: Displacement of 125I-labeled SDF-1 from the CCXCKR2 receptor on MCF-7 and/or CCXCKR2-transfected MDA-MB-435S cells (radioligand binding, filtration)
Details: 125I SDF-1, 3 hr at 4° C., MCF-7 and/or MDA-MB-435S cells; read-out: Activity (concentration displacing at least 50% of the SDF-1 from the CCXCKR2 receptor)
pIC50: −log10 of the molar value.
Readout Label: pIC50

1. Cc1ccc(C(=O)c2cn(Cc3ccccn3)c3cc4c(cc3c2=O)OCCO4)cc1C    4.70 to 6.30
2. Cc1ccc(C(=O)c2cn(Cc3cccc(Br)n3)c3ccccc3c2=O)cn1    > 7.00
3. Cc1cccc(C(=O)c2cn(Cc3cccc(Br)n3)c3ccccc3c2=O)n1    6.30 to 7.00

QUERY: Give a short answer stating reported pIC50 for O=C(c1ccc(Cl)c(Cl)c1)c1cn(Cc2cccc(Br)n2)c2ccccc2c1=O .
RESULT: > 7.00

QUERY: Give a short answer stating reported pIC50 for Cc1cc(C(=O)c2cn(Cc3cccc(NC4CC4)n3)c3ccccc3c2=O)cnc1C .
RESULT: 4.70 to 6.30

QUERY: Give a short answer stating reported pIC50 for O=C(O)c1ccccc1C(=O)c1cn(Cc2cccc(Br)n2)c2ccccc2c1=O .
RESULT: > 7.00

QUERY: Give a short answer stating reported pIC50 for Cc1cccc(Cn2cc(C(=O)c3ccc(C)c(C)n3)c(=O)c3ccccc32)n1 .
RESULT: > 7.00

QUERY: Give a short answer stating reported pIC50 for Cc1ccc(C(=O)c2cn(Cc3cccc(CN(C)C)n3)c3ccccc3c2=O)cc1C .
RESULT: 4.70 to 6.30

QUERY: Give a short answer stating reported pIC50 for CN(C)c1ccc(C(=O)c2cn(Cc3cccc(Br)n3)c3ccccc3c2=O)cn1 .
RESULT: > 7.00

QUERY: Give a short answer stating reported pIC50 for COc1ccc(C(=O)c2cn(Cc3cccc(C(F)(F)F)c3)c3ncccc3c2=O)cc1C .
RESULT: > 7.00

QUERY: Give a short answer stating reported pIC50 for Cc1ccc(C(=O)c2cn(CCc3ccccc3)c3ccccc3c2=O)cc1C .
RESULT: 4.70 to 6.30

QUERY: Give a short answer stating reported pIC50 for Cc1cc2c(=O)c(C(=O)c3ccc(C)c(C)c3)cn(Cc3cccc(Br)n3)c2c(C)n1 .
RESULT: 4.70 to 6.30

QUERY: Give a short answer stating reported pIC50 for COc1ccc(C(=O)c2cn(Cc3cccc(C(F)(F)F)n3)c3ncccc3c2=O)cc1C .
RESULT: > 7.00
